Molecular target: T1, human C5 (human, UniProt P01031 19-673; P01031 678-1676, Beta and alpha chains are disulfide-linked and the protein is glycosylated.)
T1 construct: Either in-house recombinant C5 or plasma derived C5 (CALBIOCHEM) was used; also called recombinant human C5; plasma derived human C5
Assay: Biacore, captured antibody, pH 7.4, 37 C;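 further: biacore binding response of anti-C5 antibody light chain variants captured on chip with human C5 injected, ACES running buffer containing 1.2 mM CaCl₂, parent light chain antibody set to 100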
Entries annotated with measured % binding (parent = 100)
MEASUREMENT_KIND: % binding (parent = 100) (%)

[[record]]
binder = "CFP0015 15L 50H (antibody, V domains shown) VH: QVQLLESGGGLVQPGGSLRLSCAASGFTFSSYAMSWVRQAPGKGLEWVSAISGSGGSTYYADSVKGRFTISRDNSKNTLYLQMNSLRAEDTAVYYCARGDQIWYDQWYYFDMWGQGTLVTVSS VL: DIQMTQSPSSLSASVGDRVTITCRASQSIEDDLAWYQQKPGKAPKLLIYHASNLQSGVPSRFSGSGSGTDFTLTISSLQPEDFATYYCQQYDSSPLTFGQGTKVEIK"
measurement_kind = "% binding (parent = 100)"
reported_measurement = 8.8

[[record]]
binder = "CFP0015 15L 53T (antibody, V domains shown) VH: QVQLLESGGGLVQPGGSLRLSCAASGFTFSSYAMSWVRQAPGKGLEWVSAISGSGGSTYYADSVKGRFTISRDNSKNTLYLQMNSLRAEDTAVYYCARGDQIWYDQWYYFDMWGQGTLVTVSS VL: DIQMTQSPSSLSASVGDRVTITCRASQSIEDDLAWYQQKPGKAPKLLIYEASTLQSGVPSRFSGSGSGTDFTLTISSLQPEDFATYYCQQYDSSPLTFGQGTKVEIK"
measurement_kind = "% binding (parent = 100)"
reported_measurement = 75.8

[[record]]
binder = "CFP0021 21L 50Y (antibody, V domains shown) VH: QVQLVESGGGLVQPGGSLRLSCAASGFTFSDHYMDWVRQAPGKGLEWVGRTRNKANSYTTEYAASVKGRFTISRDDSKNSLYLQMNSLKTEDTAVYYCARTGMMYWGIFDVWGQGTLVTVSS VL: DIQMTQSPSSLSASVGDRVTITCRASQSIEDDLAWYQQKPGKAPKLLIYYASTLQSGVPSRFSGSGSGTDFTLTISSLQPEDFATYYCQQHDSYPLTFGQGTKVEIK"
measurement_kind = "% binding (parent = 100)"
reported_measurement = 74.9

